Reference source: ChEMBL document CHEMBL5058577

Provide the reported Population Pyknosed Nuclei (%) of each item.
tested on: HEK-293T; assay: Multiplex assay against HEK293T; type: toxicity, cell-based; conditions: human, 48 h, 10 µM, compound concentration 10 uM, replicate 2
Give bare numbers, in %.

{"Compound": "Cc1onc(-c2ccccc2Cl)c1C(=O)N(C)c1ccc(Cl)cc1", "Assay Endpoint": "Population Pyknosed Nuclei (%)", "Result Unit": "%", "Data Value": 6}

Hey, quick one: what's Population Pyknosed Nuclei (%) for each of these?
1. CN[C@@H](C)C(=O)N[C@H](C(=O)N1CCC[C@H]1C(=O)Nc1snnc1-c1ccccc1)C1CCCCC1 [GDC-0152]
2. Cc1noc(-c2ccc(-c3ccc(CC(=O)O)cc3)cc2)c1NC(=O)O[C@H](C)c1ccccc1Cl
3. COc1cccc2c1c(NS(=O)(=O)c1ccc(Cl)s1)nn2Cc1cccc(CNC(=O)C(C)(C)O)c1
4. O=C1[C@H](Cc2ccc(O)cc2)N2C(=O)CCN(C(=O)NCc3ccccc3)[C@H]2CN1Cc1cccc2ccccc12
5. NCCc1cn(S(=O)(=O)c2c(Cl)nc3sccn23)c2ccccc12.O=C(O)C(=O)O

Reply:
1: 17; 2: 11; 3: 7; 4: 14; 5: 33

Hey, quick one: what's Population Pyknosed Nuclei (%) for each of these?
1. Cc1cnc(-c2cc(N3CCN(C(=O)CCS(C)(=O)=O)CC3)ncc2Cl)c(C)c1
2. N#Cc1c(Oc2cccc(OS(=O)(=O)CCCC(F)(F)F)c2)cccc1C(F)(F)F
3. CCCCC1=NC2(CCCC2)C(=O)N1Cc1ccc(-c2ccccc2-c2nnn[nH]2)cc1 [IRBESARTAN]
4. CN1CCN(c2cc(-c3ccccc3)nc(N)n2)CC1
5. CC(C)COc1ccc(CNC(=O)N(Cc2ccc(F)cc2)C2CCN(C)CC2)cc1 [PIMAVANSERIN]

Reply:
1. 8
2. 18
3. 6
4. 4
5. 37

Hey, quick one: what's Population Pyknosed Nuclei (%) for each of these?
1. CCCCC(=O)N(Cc1ccc(-c2ccccc2-c2nnn[nH]2)cc1)[C@H](C(=O)O)C(C)C
2. Cl.N=C(N)NC(=O)Cc1c(Cl)cccc1Cl [GUANFACINE HYDROCHLORIDE]
3. Br.CS(=O)(=O)Nc1c(O)ccc2c1CCCC2C1=NCCN1 (configuration not stated)
4. Cc1c(CC(=O)O)c2cccnc2n1Cc1ccc(S(C)(=O)=O)cc1C(F)(F)F [FEVIPIPRANT]
5. Cc1cccc(NC(=O)CN2CCC(c3ccccn3)CC2)c1.Cl.Cl

Reply:
1. 7
2. 6
3. 5
4. 8
5. 7

----------
tested on: HEK-293T; assay: Multiplex assay against HEK293T; type: toxicity, cell-based; conditions: human, 24 h, 10 µM, compound concentration 10 uM, replicate 1
Assay Endpoint: Population Fragmented Nuclei (%)
One number for each entry, in %.

Hey, quick one: what's Population Fragmented Nuclei (%) for each of these?
1. COc1ccccc1N1CCN(C[C@@H](C(=O)NC(C)(C)C)c2ccccc2)CC1.Cl.Cl
2. CCCCCC(O)/C=C/[C@H]1C(=O)CC(O)C1C/C=C\CCCC(=O)O (stereo partly specified)

Reply:
1: 8; 2: 10

Hey, quick one: what's Population Fragmented Nuclei (%) for each of these?
1. CCCCC(=O)N(Cc1ccc(-c2ccccc2-c2nnn[nH]2)cc1)[C@H](C(=O)O)C(C)C
2. CN[C@@H](C)C(=O)N[C@H](C(=O)N1CCC[C@H]1C(=O)Nc1snnc1-c1ccccc1)C1CCCCC1
3. Cc1cnc(-c2cc(N3CCN(C(=O)CCS(C)(=O)=O)CC3)ncc2Cl)c(C)c1
4. CCCCC1=NC2(CCCC2)C(=O)N1Cc1ccc(-c2ccccc2-c2nnn[nH]2)cc1

Reply:
[9, 10, 15, 6]

----------
test system: Fibroblast; assay: Multiplex assay against human fibroblast; format: toxicity, cell-based; conditions: 24 h, 10 µM, compound concentration 10 uM, replicate 1
Assay Endpoint: Population Normal (%)

Take a look at these entries with their results.
{"Compound": "NCCc1cn(S(=O)(=O)c2c(Cl)nc3sccn23)c2ccccc12.O=C(O)C(=O)O", "Population Normal (%)": "96%"}
{"Compound": "Cc1cnc(-c2cc(N3CCN(C(=O)CCS(C)(=O)=O)CC3)ncc2Cl)c(C)c1", "Population Normal (%)": "99%"}
{"Compound": "CCCOc1ccc2[nH]cc(C3=CCNCC3)c2n1.Cl", "Population Normal (%)": "98%"}
{"Compound": "CC(C)(C)c1cc(NC(=O)Nc2ccc(-c3cn4c(n3)sc3cc(OCCN5CCOCC5)ccc34)cc2)no1 [QUIZARTINIB]", "Population Normal (%)": "98%"}
{"Compound": "COc1ccccc1N1CCN(C[C@@H](C(=O)NC(C)(C)C)c2ccccc2)CC1.Cl.Cl", "Population Normal (%)": "91%"}
{"Compound": "CN[C@@H](C)C(=O)N[C@H](C(=O)N1CCC[C@H]1C(=O)Nc1snnc1-c1ccccc1)C1CCCCC1 [GDC-0152]", "Population Normal (%)": "94%"}

Hey, quick one: what's Population Normal (%) for each of these?
1. CN(C)C(=O)Cn1cc(-c2ccc(-c3cncc4ccccc34)cc2)cn1
2. Cc1c(CC(=O)O)c2cccnc2n1Cc1ccc(S(C)(=O)=O)cc1C(F)(F)F [FEVIPIPRANT]

Reply:
1. 91%
2. 98%

Hey, quick one: what's Population Normal (%) for each of these?
1. COC[C@@H](c1ccc(C(F)(F)F)cc1)N1CCN(C2(C)CCN(C(=O)c3c(C)ncnc3C)CC2)C[C@@H]1C.O=C(O)/C=C\C(=O)O [VICRIVIROC MALEATE]
2. CC(C)COc1ccc(CNC(=O)N(Cc2ccc(F)cc2)C2CCN(C)CC2)cc1 [PIMAVANSERIN]
3. Cc1noc(-c2ccc(-c3ccc(CC(=O)O)cc3)cc2)c1NC(=O)O[C@H](C)c1ccccc1Cl
4. N#Cc1c(Oc2cccc(OS(=O)(=O)CCCC(F)(F)F)c2)cccc1C(F)(F)F
5. CC(/C=C1\SC(=S)N(CCCC(=O)Nc2ccc(C(=O)O)c(O)c2)C1=O)=C\c1ccccc1
6. C[C@H](N)COC(=O)[C@@H](CCCCN)NC(=O)Cc1c(-c2ccc3ccccc3c2)[nH]c2c1ccc1ccccc12

Reply:
87%
95%
98%
94%
99%
92%

----------
test system: Fibroblast; assay: Multiplex assay against human fibroblast; format: toxicity, cell-based; settings: 48 h, 10 µM, compound concentration 10 uM, replicate 2
Assay Endpoint: Population Fragmented Nuclei (%)
Give bare numbers, in %.

{"Molecule": "CCCOc1ccc2[nH]cc(C3=CCNCC3)c2n1.Cl", "System": "Fibroblast", "Assay Endpoint": "Population Fragmented Nuclei (%)", "Data Value": 32}
{"Molecule": "O=C(CCCc1ccccc1)Nc1nc2ccccc2c(=O)s1", "System": "Fibroblast", "Assay Endpoint": "Population Fragmented Nuclei (%)", "Data Value": 40}
{"Molecule": "COc1ccccc1N1CCN(C[C@@H](C(=O)NC(C)(C)C)c2ccccc2)CC1.Cl.Cl", "System": "Fibroblast", "Assay Endpoint": "Population Fragmented Nuclei (%)", "Data Value": 50}

Hey, quick one: what's Population Fragmented Nuclei (%) for each of these?
1. COC[C@@H](c1ccc(C(F)(F)F)cc1)N1CCN(C2(C)CCN(C(=O)c3c(C)ncnc3C)CC2)C[C@@H]1C.O=C(O)/C=C\C(=O)O [VICRIVIROC MALEATE]
2. CN1CCN(c2cc(-c3ccccc3)nc(N)n2)CC1

Reply:
1. 54
2. 50

----------
Provide the reported Total Cell Count of each item.
test system: HEK-293T; assay: Multiplex assay against HEK293T; format: toxicity, cell-based; conditions: human, 12 h, 10 µM, compound concentration 10 uM, replicate 2
Numbers only.

{"Compound": "O=C(NCCN1CCC(n2c(=O)[nH]c3cc(Cl)ccc32)CC1)c1ccc(F)cc1 [HALOPEMIDE]", "System": "HEK-293T", "Total Cell Count": 319}
{"Compound": "CN[C@@H](C)C(=O)N[C@H](C(=O)N1CCC[C@H]1C(=O)Nc1snnc1-c1ccccc1)C1CCCCC1 [GDC-0152]", "System": "HEK-293T", "Total Cell Count": 330}
{"Compound": "Cc1sc2c(c1C)C(c1ccc(Cl)cc1)=N[C@@H](CC(=O)NCCCCCCCCNC(=O)COc1cccc3c1C(=O)N(C1CCC(=O)NC1=O)C3=O)c1nnc(C)n1-2 (stereo partly drawn)", "System": "HEK-293T", "Total Cell Count": 315}
{"Compound": "CN(C)C(=O)Cn1cc(-c2ccc(-c3cncc4ccccc34)cc2)cn1", "System": "HEK-293T", "Total Cell Count": 321}

Hey, quick one: what's Total Cell Count for each of these?
1. CCCCC1=NC2(CCCC2)C(=O)N1Cc1ccc(-c2ccccc2-c2nnn[nH]2)cc1 [IRBESARTAN]
2. Cc1onc(-c2ccccc2Cl)c1C(=O)N(C)c1ccc(Cl)cc1
3. CCCCCC(O)/C=C/[C@H]1C(=O)CC(O)C1C/C=C\CCCC(=O)O (stereo partly drawn)
4. Cc1c(CC(=O)O)c2cccnc2n1Cc1ccc(S(C)(=O)=O)cc1C(F)(F)F [FEVIPIPRANT]

Reply:
[351, 330, 343, 303]
